System: HORSS: barley, including spring and winter (Hordeum vulgare)
Test: Post-emergent Test III, herbicidal activity in wheat and barley
Assay type: in vivo
Conditions: Hordeum vulgare, post-emergence, 504 h; Table 9; 70 g ai/ha; post-emergent; 21 d; read-out: Visual Growth Reduction (%) 21 Days After Application HORSS
pest or weed control at 70 g/ha: recorded values

Query string: Retrieve pest or weed control at 70 g/ha measured for `COC(=O)c1nc(-c2ccc(I)cc2)c(Cl)c(N)c1Cl` and print it.
Result string: 95 to 100%

Query string: Note down pest or weed control at 70 g/ha recorded for `COc1c(N)nc(-c2ccc(Br)cc2F)nc1C(=O)O`
Result string: 60 to 74%

Query string: Could you please provide reported pest or weed control at 70 g/ha for `COC(=O)c1nc(-c2ccc(I)cc2F)cc(N)c1Cl` ? Thanks!
Result string: 95 to 100%

Query string: Give the measured pest or weed control at 70 g/ha for `C#Cc1ccc(-c2nc(N)c(OC)c(C(=O)O)n2)cc1`
Result string: 30 to 44%

Query string: Give the value of pest or weed control at 70 g/ha reported for the following: `Nc1c(Cl)c(C(=O)O)nc(-c2ccc(I)cc2)c1Cl`
Result string: 95 to 100%

###

Entries annotated with measured pest or weed control at 140 g/ha
System: Key Broadleaf Weed and Crop Species
Experiment: Post-emergent Test II herbicidal activity (Table 5)
Type: in vivo
Conditions: post-emergence, 336 h; CHEAL: lambsquarters (Chenopodium album); application rate 140 g ai/ha; 14 days after application; read-out: Visual Growth Reduction (%) 14 Days After Application, CHEAL

1. COC(=O)c1ccc(-c2nc(C(=O)OC)c(Cl)c(N)c2F)cc1: 30 to 44%

Query string: Query pest or weed control at 140 g/ha for `COC(=O)c1nc(-c2ccc(Cl)c(F)c2)c(F)c(N)c1Cl`
Result string: 95 to 100%

Query string: Entry `C#Cc1ccc(-c2nc(N)c(OC)c(C(=O)OC)n2)c(F)c1F` needs its pest or weed control at 140 g/ha filled in; supply it.
Result string: 0 to 29%

Query string: Name the recorded pest or weed control at 140 g/ha of the compound listed here: `COC(=O)c1nc(-c2ccc(Br)c(F)c2F)nc(N)c1OC`
Result string: 95 to 100%

Query string: Consider the compound `COC(=O)c1nc(-c2ccc(I)c(F)c2F)c(F)c(N)c1Cl` and give its recorded pest or weed control at 140 g/ha.
Result string: 95 to 100%

Query string: Entry `Nc1c(F)c(-c2ccc(I)cc2)nc(C(=O)O)c1Cl` needs its pest or weed control at 140 g/ha filled in; supply it.
Result string: 95 to 100%

Query string: Specify pest or weed control at 140 g/ha for `COC(=O)c1nc(-c2ccccc2)c(F)c(N)c1Cl` and stop.
Result string: 95 to 100%

Query string: Give reported pest or weed control at 140 g/ha value for `COC(=O)c1nc(-c2ccc(C(F)(F)F)c(F)c2F)c(F)c(N)c1Cl`
Result string: 95 to 100%

Query string: Note down pest or weed control at 140 g/ha recorded for `COC(=O)c1nc(-c2ccc(C)c(F)c2F)c(F)c(N)c1Cl`
Result string: 95 to 100%

###

Tested on: APESV: bentgrass (Apera spica-venti)
Assay: Post-emergent Test III, herbicidal activity in wheat and barley
Assay type: in vivo
Details: probit analysis, dose for growth reduction of 50 percent, 21 days after application
Known GR50 APESV of a selection of compounds
Give the quantity in g ai/ha, number only.

A selection of reference data follows.
1) Nc1c(F)c(-c2ccc(Cl)c(F)c2)nc(C(=O)O)c1Cl [Compound 217]: 6
2) COC(=O)c1nc(-c2ccc(Cl)c(F)c2)c(F)c(N)c1Cl [Compound 216]: 6
3) COC(=O)c1nc(-c2ccc(F)cc2)c(F)c(N)c1Cl [Compound 204]: 106

Query string: Report GR50 APESV from APESV: bentgrass (Apera spica-venti) testing of C=Cc1c(C(=O)O)nc(-c2ccc(Cl)c(F)c2)c(F)c1N [Compound 214]
Result string: 110

Values were extracted from patent US9113629B2.
